System: OVCAR-5 ovarian
experiment: NCI tumour cell line growth inhibition, 48 h
Quick reference for TGI among some compounds

compound: CC(=O)N1N=C(c2c(O)ccc3ccccc23)CC1c1ccc(Cl)cc1 (stereo unspecified)
TGI: 58 µM
--
compound: C/C1=C\CC/C(C)=C/C=C(/C(C)C)CC/C(C(=O)O)=C/CC1
TGI: > 100 µM
--
compound: CCN(CC)CCC(=O)c1ccc(Oc2ccccc2)cc1
TGI: 46.4 µM
--
compound: COc1cc(/C=C/C(=O)c2c(C)n([O-])c3ccc(Cl)cc3[n+]2=O)cc(OC)c1OC
TGI: > 100 µM
--
compound: Cc1cc(C)c(NS(=O)c2cccc(Cl)c2)c(C)c1 (stereo unspecified)
TGI: > 100 µM
--
compound: O=Cc1ccc(-c2cccc([N+](=O)[O-])c2)s1
TGI: > 100 µM
--
compound: Cc1nn(-c2nc3ccccc3[nH]2)c2c1C(c1ccc3c(c1)OCO3)CC(=O)N2 (stereo unspecified)
TGI: > 100 µM
--
compound: CC(C)(C)c1cc(C(=O)/C=C/c2ccc3c(c2)CCO3)cc(C(C)(C)C)c1O
TGI: > 27.6 µM
--
compound: O=C1C(=O)c2ccccc2C(O)=C1CCCCCCCCC1CCCCC1
TGI: 32.2 µM
--
compound: O=C(CN1C(=O)c2ccccc2C1=O)C(O)CN1C(=O)c2ccccc2C1=O (stereo unspecified)
TGI: > 100 µM
--
compound: COc1ccccc1/C=N/N=C(\N)NO
TGI: 24.3 µM

* * *

Test system: NCI-H522 lung
experiment: NCI tumour cell line growth inhibition, 48 h
Quick reference for TGI among some molecules

molecule: CC1SC(=O)SC1C (stereo unspecified)
target.of.assay: NCI-H522 lung
TGI: > 100 µM

molecule: NS(=O)(=O)c1nnc(/N=C(/CCC(=O)O)C(=O)O)s1
target.of.assay: NCI-H522 lung
TGI: > 100 µM

molecule: [O-]c1c[n+](CC[n+]2cc([O-])on2)no1
target.of.assay: NCI-H522 lung
TGI: > 100 µM

molecule: COc1cc(-c2oc3c(OC)c(O)c(OC)c(O)c3c(=O)c2OC)ccc1O
target.of.assay: NCI-H522 lung
TGI: 66.9 µM

molecule: CCOC(=O)c1nc2ccccc2nc1Oc1ccc(OC)cc1
target.of.assay: NCI-H522 lung
TGI: > 100 µM

molecule: COc1cc([C@@H]2OC(=O)C3C2C(=O)O[C@H]3c2cc(OC)c(OC)c(OC)c2)cc(OC)c1OC (stereo partly specified)
target.of.assay: NCI-H522 lung
TGI: > 100 µM

* * *

System: SF-268 CNS
experiment: NCI tumour cell line growth inhibition, 48 h
assay.endpoint: TGI

molecule: NC(CCSC(F)F)C(=O)O (stereo unspecified)
assay.endpoint: TGI
result: > 100 µM
//
molecule: CN(C)c1ccc(O)c2c1C[C@H]1C[C@H]3[C@H](N(C)C)C(=O)C(C(N)=O)=C(O)[C@@]3(O)C(=O)C1=C2O
assay.endpoint: TGI
result: > 100 µM
//
molecule: O=C(N/N=C\c1ccc(N(CCCl)CCCl)cc1Cl)c1cccnc1
assay.endpoint: TGI
result: > 84 µM
//
molecule: O=C(/C=C/c1ccc(C(F)(F)F)cc1)c1ccc(Nc2nc(NCCO)nc(N3CCOCC3)n2)cc1
assay.endpoint: TGI
result: 11.1 µM
//
molecule: O=P1(O)c2ccccc2Nc2cc(C(F)(F)F)ccc21
assay.endpoint: TGI
result: > 100 µM
//
molecule: OC(CNc1ccnc2cc(Cl)ccc12)CNC1CCCCC1 (stereo unspecified)
assay.endpoint: TGI
result: 21.9 µM
//
molecule: CCCCc1ccc(Nc2nc(N)c3ncn(COCCO)c3n2)cc1
assay.endpoint: TGI
result: > 100 µM
//
molecule: CC[C@](C)(O)C(=O)O[C@H]1C(=O)O[C@@H]2C[C@H]3C(C)=C[C@H](O)[C@@H](O)[C@]3(C)[C@H]3[C@@]4(O)OC[C@]32[C@@H]1[C@@H](C)[C@H]4O
assay.endpoint: TGI
result: 207 µM
//
molecule: N=C(N)c1ccc(-c2ccc(-c3cccs3)s2)nc1
assay.endpoint: TGI
result: 10.7 µM
//
molecule: CC1OC(OC2C(O[C@@H]3C[C@@H]4CC[C@@H]5[C@H](CC[C@]6(C)C7C(C[C@@H]56)O[C@]5(CC[C@@H](C)CO5)[C@H]7C)[C@@]4(C)C[C@H]3O)OC(CO)C(O)C2O)C(O)C(O)C1O (stereo partly specified)
assay.endpoint: TGI
result: 3.5 µM
//
molecule: ClCc1ccc2ccc3ccc(CCl)nc3c2n1
assay.endpoint: TGI
result: 55 µM
//
molecule: O=c1n(CCCCn2c(=O)n(CC3CS3)c3ccccc32)c2ccccc2n1CC1CS1 (stereo unspecified)
assay.endpoint: TGI
result: > 100 µM
//
molecule: C=CCCCCCC(O)C(O)C/C=C\C/C=C\CC (stereo unspecified)
assay.endpoint: TGI
result: > 18.8 µM
//
molecule: O=[N+]([O-])c1ccc(NC(=S)Nc2ccccn2)cc1
assay.endpoint: TGI
result: > 91.7 µM
//
molecule: O=C(CN1CCOCC1)Nc1ccc2c(c1)C1Oc3ccccc3CC1CO2 (stereo unspecified)
assay.endpoint: TGI
result: > 100 µM
//
molecule: Nc1cccc(C#Cc2cccc(C#Cc3cccc(N)n3)n2)n1
assay.endpoint: TGI
result: > 100 µM
//
molecule: O=C1NC(=NC2CCCCC2)C2(CCN(CCCC3(c4ccc(F)cc4)OCCO3)CC2)N1c1ccccc1
assay.endpoint: TGI
result: 42.2 µM
//
molecule: CS(=O)(=O)Nc1cc(-c2ccc3ncnc(Nc4ccc5c(cnn5Cc5ccccc5F)c4)c3c2)cnc1Cl
assay.endpoint: TGI
result: 9.18 µM
//
molecule: O=C1C[C@H]2CC3(CC[C@H]2CN1)OCCO3
assay.endpoint: TGI
result: > 100 µM
//
molecule: Cc1ccc(S(=O)(=O)c2c3[nH]c4ccccc4nc3n3c2nc2ccccc23)cc1
assay.endpoint: TGI
result: > 100 µM
//
molecule: CC1SC(=O)SC1C (stereo unspecified)
assay.endpoint: TGI
result: > 100 µM
//
molecule: Cc1cccc2c1C/C(=C1\CCc3c(C)cccc31)C2=O
assay.endpoint: TGI
result: > 100 µM
//
molecule: COc1ccc([C@H](NC(=O)c2ccccc2)[C@@H](O)C(=O)O[C@H]2C[C@@]3(O)C(OC(=O)c4ccccc4)C4[C@](C)(C(=O)[C@H](OC(C)=O)C(=C2C)C3(C)C)[C@@H](O)C[C@H]2OC[C@@]42OC(C)=O)cc1 (stereo partly specified)
assay.endpoint: TGI
result: > 10 µM
//
molecule: COC(=O)CCC(C)C1CCC2C3CCC4CC5CCC4(C)C3(O5)C(Br)C(Br)C12C (stereo unspecified)
assay.endpoint: TGI
result: > 100 µM
//
molecule: CCCN(CCC)C(=O)[C@H](CC)[C@@H]1CC[C@@H](C)[C@@H]([C@H](C)[C@@H](O)[C@@H](C)C(=O)[C@H](CC)C2O[C@]3(C=C[C@@H](O)[C@]4(CC[C@@](C)([C@H]5CC[C@](O)(CC)[C@H](C)O5)O4)O3)[C@H](C)C[C@@H]2C)O1 (stereo partly specified)
assay.endpoint: TGI
result: 22.7 µM
//
molecule: Oc1c(N=Nc2ccccc2)c2ccccc2c2ccc3ccccc3c12
assay.endpoint: TGI
result: > 100 µM
//
molecule: [C-]#[N+]C(C)(C)C[C@H]1CC(C)C2CCC(C)C3([N+]#[C-])CCC(=C)C1[C@H]23 (stereo partly specified)
assay.endpoint: TGI
result: 10.5 µM
//
molecule: CCOC(=O)NC(=O)c1cn(CCN2CCN(C(=O)NCCCCCCNC(=O)N3CCN(CCn4cc(C(=O)NC(=O)OCC)c(=O)n(CCN(CC)CC)c4=O)CC3)CC2)c(=O)n(CCC(CC)CC)c1=O
assay.endpoint: TGI
result: > 100 µM
//
molecule: O=C(N/C(=C\c1ccc(Oc2ccc(Cl)c(Cl)c2)cc1)c1nc2ccccc2[nH]1)c1ccccc1
assay.endpoint: TGI
result: 37.1 µM
//
molecule: N#C/C(=C\c1ccc(Br)cc1)c1nc(-c2cc3ccccc3oc2=O)cs1
assay.endpoint: TGI
result: > 50 µM
//
molecule: COc1cc(/C=C2\CC3C4CC[C@H]5C[C@@H](O)CC[C@]5(C)C4CC[C@]3(C)C2=O)cc(OC)c1OC (stereo partly specified)
assay.endpoint: TGI
result: > 100 µM
//
molecule: Clc1ccc(-c2nnc(C34CC5CC(CC(C5)C3)C4)o2)cc1
assay.endpoint: TGI
result: > 100 µM
//
molecule: N/C(COc1ccc(Cl)cc1)=N\NC(=O)c1ccncc1
assay.endpoint: TGI
result: > 100 µM
//
molecule: CCN1C[C@]2(C)CC[C@H](OCc3ccccc3)C34C5C[C@@H]6CC[C@](O)(C(C[C@@H]32)C14)C5[C@H]6OCc1ccccc1 (stereo partly specified)
assay.endpoint: TGI
result: > 100 µM
//
molecule: Clc1ccc(SCCCCCCCCCCSc2ccc(Cl)cc2)cc1
assay.endpoint: TGI
result: > 100 µM
//
molecule: CC(=O)N1C2=CCCC2(C)c2ccccc21 (stereo unspecified)
assay.endpoint: TGI
result: > 100 µM
